procedure.text: Zeta-potential measurement
Format: physicochemical
experimental.context: zeta-potential of the peptide assemblies; mean; Figure 3A source data
endpoint.label: Zeta-Potential / mV

substance=KNDKND experimental_value="-15 mV"
substance=QCKFKFQF experimental_value="12.2 mV"
substance=KIKIQIN experimental_value="3.34 mV"
substance=RGDSKIKIQIC experimental_value="15.1 mV"
substance=KVKVKVQV experimental_value="-3.41 mV"
substance=KIKIKIKI experimental_value="5.46 mV"
substance=NMWQKVGTPL experimental_value="-9.62 mV"
substance=RGDKIKIQIC experimental_value="16.5 mV"
substance=HGDKCHGDKC experimental_value="-11.63 mV"
substance=KIKIQINMWWQ experimental_value="11.8 mV"
substance=KWKWQW experimental_value="7.55 mV"
substance=KIKIQINMW experimental_value="19.7 mV"
substance=HHHHEIEIEIEI experimental_value="-6.91 mV"
substance=FDPFDPFDP experimental_value="-10.9 mV"
substance=CETMYDKILKNLSRSR experimental_value="0.41 mV"
substance=KLKQLL experimental_value="-8.46 mV"
substance=KIKIKIQI experimental_value="6.97 mV"
substance=KAKQAANMWQ experimental_value="-12.9 mV"
substance=EFEFQF experimental_value="-24.5 mV"
substance=MKIKIQINM experimental_value="9.13 mV"
substance=HRRHFRHKITKKK experimental_value="-9.22 mV"
